# Assay protocol: Solubility of the lyophilised peptide
# Assay type: physicochemical
# Measurement context: in water, read-out: solubility in water
Residues, ends and D or L forms follow the SMILES beside them. *: point of attachment. Myristoyl = CCCCCCCCCCCCCC(=O)*
Measured property: solubility

[
  {
    "Molecule": "CCCCCCCCCCCCCC(=O)NCC(=O)N[C@@H](CO)C(=O)N[C@@H](CO)C(=O)N[C@@H](CCCCN)C(=O)N[C@@H](CO)C(=O)N1CCC[C@H]1C(=O)N[C@@H](CO)C(=O)N[C@@H](CCCCN)C(=O)N[C@@H](CCCCN)C(=O)N[C@@H](CC(=O)O)C(=O)N[C@@H](CC(=O)O)C(=O)N[C@@H](CCCCN)C(=O)N[C@@H](CCCCN)C(=O)N1CCC[C@H]1C(=O)NCC(=O)N[C@@H](CC(=O)O)C(=O)N[C@@H](CCCCNC(=O)[C@@H](N)CS)C(N)=O [MSWP2278] (Myristoyl-GSSKSPSKKDDKKPGDK(Cys)-NH2)",
    "Test result": "≥ 10000 µg/mL"
  }
]

---

# Assay protocol: Solubility of the lyophilised peptide
# Format: physicochemical
# Measurement context: in dimethylsulfoxide, read-out: solubility in dimethylsulfoxide
Residues, ends and D or L forms follow the SMILES beside them. *: point of attachment. Myristoyl = CCCCCCCCCCCCCC(=O)*

[
  {
    "Molecule": "CCCCCCCCCCCCCC(=O)NCC(=O)N[C@@H](CO)C(=O)N[C@@H](CO)C(=O)N[C@@H](CCCCN)C(=O)N[C@@H](CO)C(=O)N1CCC[C@H]1C(=O)N[C@@H](CO)C(=O)N[C@@H](CCCCN)C(=O)N[C@@H](CCCCN)C(=O)N[C@@H](CC(=O)O)C(=O)N[C@@H](CC(=O)O)C(=O)N[C@@H](CCCCN)C(=O)N[C@@H](CCCCN)C(=O)N1CCC[C@H]1C(=O)NCC(=O)N[C@@H](CC(=O)O)C(=O)N[C@@H](CCCCNC(=O)[C@@H](N)CS)C(N)=O [MSWP2278] (Myristoyl-GSSKSPSKKDDKKPGDK(Cys)-NH2)",
    "solubility": "≥ 10000 µg/mL"
  }
]
